target of assay: UniProt Q13547
Sequence (Q13547 whole entry, species assumed): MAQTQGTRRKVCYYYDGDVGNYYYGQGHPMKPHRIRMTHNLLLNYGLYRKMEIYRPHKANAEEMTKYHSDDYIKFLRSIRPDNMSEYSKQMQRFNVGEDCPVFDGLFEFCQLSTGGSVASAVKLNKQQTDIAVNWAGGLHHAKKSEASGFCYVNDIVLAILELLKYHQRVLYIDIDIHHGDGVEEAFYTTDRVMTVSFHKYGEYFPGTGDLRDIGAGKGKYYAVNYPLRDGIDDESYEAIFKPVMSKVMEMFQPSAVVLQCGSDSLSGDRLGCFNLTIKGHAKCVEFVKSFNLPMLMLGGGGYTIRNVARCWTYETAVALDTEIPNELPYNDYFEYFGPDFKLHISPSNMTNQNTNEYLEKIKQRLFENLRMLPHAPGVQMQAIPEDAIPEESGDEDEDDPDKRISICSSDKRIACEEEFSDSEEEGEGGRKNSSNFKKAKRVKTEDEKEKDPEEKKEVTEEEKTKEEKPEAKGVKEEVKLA
measurement kind: pIC50
One number for each entry, as −log10 of the molar value.

Give the measured pIC50 of CC(C)(C)OC(=O)NC(Cc1ccc(OCc2ccccc2)cn1)C(=O)Nc1ccc(CCCC(=O)NO)cc1 (stereo not shown) [AzP, Azatyrosine-phenylbutyric hydroxamides] .
5.46

----------
target of assay: UniProt P56524
Sequence (P56524 whole entry, species assumed): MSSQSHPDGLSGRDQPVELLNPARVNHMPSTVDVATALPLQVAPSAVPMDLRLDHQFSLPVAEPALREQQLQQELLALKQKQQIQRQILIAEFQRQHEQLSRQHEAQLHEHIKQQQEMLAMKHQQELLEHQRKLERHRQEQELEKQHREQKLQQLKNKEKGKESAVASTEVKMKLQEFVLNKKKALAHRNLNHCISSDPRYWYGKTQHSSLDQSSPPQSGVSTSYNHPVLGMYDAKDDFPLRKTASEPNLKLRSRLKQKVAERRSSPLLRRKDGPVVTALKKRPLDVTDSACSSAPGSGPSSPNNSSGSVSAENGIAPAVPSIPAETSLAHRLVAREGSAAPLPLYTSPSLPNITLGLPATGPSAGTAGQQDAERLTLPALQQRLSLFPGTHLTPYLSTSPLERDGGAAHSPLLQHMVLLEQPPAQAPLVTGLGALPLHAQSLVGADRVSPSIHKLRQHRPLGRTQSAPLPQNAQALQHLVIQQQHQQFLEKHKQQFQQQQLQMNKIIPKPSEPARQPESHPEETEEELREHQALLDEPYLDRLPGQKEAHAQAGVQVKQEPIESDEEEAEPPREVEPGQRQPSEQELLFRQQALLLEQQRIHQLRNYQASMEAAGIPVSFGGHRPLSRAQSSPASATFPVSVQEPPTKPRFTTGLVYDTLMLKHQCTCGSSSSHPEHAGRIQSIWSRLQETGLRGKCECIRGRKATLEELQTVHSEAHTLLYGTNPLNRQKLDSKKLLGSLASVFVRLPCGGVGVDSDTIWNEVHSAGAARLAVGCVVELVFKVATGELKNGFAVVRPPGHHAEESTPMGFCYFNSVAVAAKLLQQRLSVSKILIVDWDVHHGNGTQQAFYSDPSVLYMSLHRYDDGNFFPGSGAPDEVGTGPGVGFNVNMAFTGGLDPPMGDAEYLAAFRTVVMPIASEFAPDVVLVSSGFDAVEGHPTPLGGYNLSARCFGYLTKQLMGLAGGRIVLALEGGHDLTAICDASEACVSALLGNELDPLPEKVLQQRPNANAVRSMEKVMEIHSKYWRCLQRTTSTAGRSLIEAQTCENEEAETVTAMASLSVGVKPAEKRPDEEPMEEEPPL
measurement kind: pIC50
Give bare numbers, as −log10 of the molar value.

Give the measured pIC50 of CC(C)(C)OC(=O)NC(Cc1ccc(OCc2ccccc2)cn1)C(=O)Nc1ccc(CCCC(=O)NO)cc1 (stereo not shown) [AzP, Azatyrosine-phenylbutyric hydroxamides] .
5.71

----------
target of assay: Pan HDAC enzyme
experimental protocol: HDAC fluorometric activity assay, pan HDAC
measurement kind: IC50 (nM)
One number for each entry, in nM.

Give the measured IC50 of CC(C)(C)OC(=O)NC(Cc1ccc(OCc2ccccc2)cn1)C(=O)Nc1ccc(CCCC(=O)NO)cc1 (stereo not shown) [AzP, Azatyrosine-phenylbutyric hydroxamides] .
1650
